Reference source: ChEMBL document CHEMBL2440017

PROCEDURE_SUMMARY: Elimination half life in OF1 mouse brain at 10 mg/kg, po
Format: ADME, organism-based
Design: dose 10 mg/kg, route oral
DETAILS: read-out: beta t1/2 (converted)
READOUT_NAME: half-life (h)
Numbers only, in h.

half-life recorded for this compound, `Cc1cc(N2CC[C@H](N3CCC[C@@H]3C)C2)ccc1NC(=O)C1CCOCC1` , is 1.9
